This collection of values is drawn from the OPERA property sets (Mansouri et al. 2018).

Threshold-based label: boiling point under 100 °C gives Condition met, boiling point not under 100 °C gives Condition not met.

compound=Brc1cccc(Br)c1 class_assignment="Condition not met"
compound=CCNC(C)C class_assignment="Condition met"
compound="CC(Cl)C(C)Cl (stereo not given)" class_assignment="Condition not met"
compound=CCON=O class_assignment="Condition met"

For this compound, is boiling point lower than 100 °C? CC[B]CC
Condition not met

For this compound, is boiling point lower than 100 °C? O=Cc1ccccc1O
Condition not met

---

melting point of 100 °C or higher: fulfilled. Under 100 °C: not fulfilled.

compound=O=C(O)C1=CCCCC1 class_assignment="not fulfilled"
compound=CCCCN(CCCC)CCCC class_assignment="not fulfilled"
compound=CN(C)c1ccc(C(=O)c2ccccc2)cc1 class_assignment="not fulfilled"
compound=Nc1ccc(OCCCCCN2C(=O)c3ccccc3C2=O)cc1 class_assignment=fulfilled
compound=CCC(CC)C(=O)O class_assignment="not fulfilled"

Quick check, melting point >= 100 °C? Cl.N=C(N)N
fulfilled

Quick check, melting point >= 100 °C? C(#Cc1ccccc1)c1ccccc1
not fulfilled

---

details: fish
log10 biotransformation half-life (days) of 0.8 or higher: yes (1). Under 0.8: no (0).

A selection of reference data follows.
molecule="c1ccc(C2CCCC(C3CCCCC3)C2)cc1 (stereo not given)" class_assignment="no (0)"
molecule=C=C(C)CCCCCCCCCC class_assignment="no (0)"
molecule=Clc1cc2ccccc2c2ccccc12 class_assignment="yes (1)"

Quick check, log10 biotransformation half-life (days) >= 0.8? Clc1cccc(-c2ccccc2)c1Cl
yes (1)

Quick check, log10 biotransformation half-life (days) >= 0.8? CC(C)(c1ccc(OC(F)(F)C(F)F)cc1)c1ccc(OC(F)(F)C(F)F)cc1
yes (1)

Quick check, log10 biotransformation half-life (days) >= 0.8? Cc1ccccc1OP(=O)(Oc1ccccc1C)Oc1ccccc1C
no (0)

Quick check, log10 biotransformation half-life (days) >= 0.8? Oc1cc(Cl)cc(Cl)c1
no (0)

Quick check, log10 biotransformation half-life (days) >= 0.8? CCC(C)CCCC(C)CCCC(C)C (stereo not given)
yes (1)

Quick check, log10 biotransformation half-life (days) >= 0.8? Nc1c(Cl)cc(Cl)cc1Cl
no (0)

Quick check, log10 biotransformation half-life (days) >= 0.8? Clc1cc2c(c(Cl)c1Cl)Oc1cc(Cl)c(Cl)c(Cl)c1O2
yes (1)

Quick check, log10 biotransformation half-life (days) >= 0.8? Clc1ccc(-c2cc(Cl)c(Cl)c(Cl)c2Cl)cc1Cl
yes (1)

Quick check, log10 biotransformation half-life (days) >= 0.8? CNc1ccccc1
no (0)

Quick check, log10 biotransformation half-life (days) >= 0.8? c1ccc2c(c1)CCCC2
no (0)

Quick check, log10 biotransformation half-life (days) >= 0.8? CC(Cl)CCl (stereo not given)
no (0)

Quick check, log10 biotransformation half-life (days) >= 0.8? CCC(C)c1ccccc1OC(=O)NC (stereo not given)
no (0)

Quick check, log10 biotransformation half-life (days) >= 0.8? Clc1cc2c(oc3c(Cl)c(Cl)c(Cl)cc32)c(Cl)c1Cl
yes (1)

Quick check, log10 biotransformation half-life (days) >= 0.8? CCCCC(CC)COP(=O)(OCC(CC)CCCC)OCC(CC)CCCC (stereo not given)
no (0)

Quick check, log10 biotransformation half-life (days) >= 0.8? CCCCOC(=O)c1ccccc1C(=O)OCCCC
no (0)

Quick check, log10 biotransformation half-life (days) >= 0.8? ClC(c1ccccc1)(c1ccccc1)c1ccccc1
no (0)

Quick check, log10 biotransformation half-life (days) >= 0.8? COP(=S)(OC)Oc1ccc(SC)c(C)c1
no (0)

Quick check, log10 biotransformation half-life (days) >= 0.8? Cc1cc2ccccc2c2ccccc12
no (0)

Quick check, log10 biotransformation half-life (days) >= 0.8? Cc1cc(C)c2ccccc2c1
no (0)

Quick check, log10 biotransformation half-life (days) >= 0.8? Clc1cc(Cl)c(-c2c(Cl)cc(Cl)c(Cl)c2Cl)cc1Cl
yes (1)

Quick check, log10 biotransformation half-life (days) >= 0.8? O=C1c2ccccc2C(=O)c2c(Cl)cccc21
no (0)

Quick check, log10 biotransformation half-life (days) >= 0.8? CC(C)COc1ccc2ccccc2c1
no (0)

Quick check, log10 biotransformation half-life (days) >= 0.8? c1ccc2c(c1)[nH]c1ccccc12
no (0)

Quick check, log10 biotransformation half-life (days) >= 0.8? CCC(C)CCCC(C)C (stereo not given)
no (0)

---

settings: fish
Threshold-based label: log10 biotransformation half-life (days) under -0.1 gives Met, log10 biotransformation half-life (days) not under -0.1 gives Not met.

A selection of reference data follows.
compound=Clc1ccc(Cl)c2ccccc12 class_assignment="Not met"
compound=CCN(CC)C(=O)SCc1ccc(Cl)cc1 class_assignment="Not met"
compound=CCOP(=S)(OCC)Oc1cc(-c2ccccc2)on1 class_assignment="Not met"

Now for a further compound.
For this compound, is log10 biotransformation half-life (days) lower than -0.1? ClCC(Cl)CCl
Met

---

boiling point of 200 °C or higher: true (1). Under 200 °C: false (0).

A selection of reference data follows.
molecule=NCCOCCO class_assignment="true (1)"
molecule="CCC(C)OC=O (configuration not stated)" class_assignment="false (0)"
molecule=OCc1cccc2ccccc12 class_assignment="true (1)"
molecule=C=C(CCl)CCl class_assignment="false (0)"

Quick check, boiling point >= 200 °C? FC(F)(Br)C(F)(Cl)Br (configuration not stated)
false (0)

Quick check, boiling point >= 200 °C? N#Cc1ccc(OC(F)(F)F)cc1
false (0)

Quick check, boiling point >= 200 °C? c1ccc(Cc2ccccn2)cc1
true (1)

Quick check, boiling point >= 200 °C? FCOC(C(F)(F)F)C(F)(F)F
false (0)

Quick check, boiling point >= 200 °C? CCC(C#N)CC
false (0)

Quick check, boiling point >= 200 °C? COc1cccc(-c2cccc(OC)c2)c1
true (1)

---

Response field class: string, computed from recorded melting point by ranges 1: < 40 °C; 2: ≥ 40 °C and < 100 °C; 3: ≥ 100 °C

A selection of reference data follows.
sample_smiles=CC(C)N(C(=O)SCC(Cl)=CCl)C(C)C class_assignment=1
sample_smiles=C=C(Cl)C#N class_assignment=1
sample_smiles=O=C(NC(=O)c1c(F)cccc1F)Nc1cc(Cl)c(F)c(Cl)c1F class_assignment=3

Band for Clc1cc2c(cc1Cl)Oc1cc(Br)c(Br)cc1O2 ?
3

Band for CCN1CCNC(=O)C1=O ?
3

Band for COc1ccc2c3c1O[C@H]1[C@@H](O)C=C[C@H]4[C@@H](C2)[N@@+](C)([O-])CC[C@@]341 ?
3

Band for O=C1CCOc2ccccc21 ?
1

Band for O=c1ccn([C@H]2CC[C@@H](CO)O2)c(=O)[nH]1 ?
3

Band for O=C=Nc1cccc(N=C=O)c1 ?
2

Band for CCCCCCCC(=O)OCC ?
1

Band for CCCCCCCCCCCCCCCCCCCCCC1CCCC1 ?
2

Band for [N-]=[N+]=NCC(=O)N[C@H](CO)[C@H](O)c1ccc([N+](=O)[O-])cc1 ?
3

Band for O=C1OC(=O)c2c1ccc(Cl)c2Cl ?
3

---

REPORTED METRIC: melting point

Please review the entries below; each comes with its answer.
molecule=CCOc1ccc(Cl)cc1Cl reported_metric="melting point" val="32 °C"
molecule=CCOC(=O)c1ccccc1C(=O)OCC reported_metric="melting point" val="-40.5 °C"

List the reported melting point of each molecule below.
1. O=C(O)Cc1cccc(O)c1
2. FC(F)(F)C1(F)C(F)(F)C(F)(F)C(F)(F)C(F)(C(F)(F)F)C1(F)F (stereo not given)
3. CCC(c1ccc(O)c(C)c1)C(CC)c1ccc(O)c(C)c1 (stereo not given)
4. Cc1ccc([N+](=O)[O-])c(Cl)c1

["132 °C", "-70 °C", "145 °C", "24 °C"]

---

boiling point of 200 °C or higher: criterion met. Under 200 °C: criterion not met.

A selection of reference data follows.
compound=CC(C)(C)c1cccc2ccccc12 class_assignment="criterion met"
compound=COc1cccc(C=O)c1 class_assignment="criterion met"
compound=C=COC class_assignment="criterion not met"

Quick check, boiling point >= 200 °C? CCCCNC(C)=O
criterion met

Quick check, boiling point >= 200 °C? NC(=O)C(Cl)(Cl)Cl
criterion met

Quick check, boiling point >= 200 °C? CCCC(Br)C(=O)OCC (centres undefined)
criterion not met

Quick check, boiling point >= 200 °C? O=C(O)CCCl
criterion not met

Quick check, boiling point >= 200 °C? Cn1c(=O)ccc2ccccc21
criterion met

Quick check, boiling point >= 200 °C? COCC(COC)OC
criterion not met
